Target: D. immitis Slo-1 (Dirofilaria immitis, UniProt I0DFK5)
Sequence (I0DFK5 1-1119): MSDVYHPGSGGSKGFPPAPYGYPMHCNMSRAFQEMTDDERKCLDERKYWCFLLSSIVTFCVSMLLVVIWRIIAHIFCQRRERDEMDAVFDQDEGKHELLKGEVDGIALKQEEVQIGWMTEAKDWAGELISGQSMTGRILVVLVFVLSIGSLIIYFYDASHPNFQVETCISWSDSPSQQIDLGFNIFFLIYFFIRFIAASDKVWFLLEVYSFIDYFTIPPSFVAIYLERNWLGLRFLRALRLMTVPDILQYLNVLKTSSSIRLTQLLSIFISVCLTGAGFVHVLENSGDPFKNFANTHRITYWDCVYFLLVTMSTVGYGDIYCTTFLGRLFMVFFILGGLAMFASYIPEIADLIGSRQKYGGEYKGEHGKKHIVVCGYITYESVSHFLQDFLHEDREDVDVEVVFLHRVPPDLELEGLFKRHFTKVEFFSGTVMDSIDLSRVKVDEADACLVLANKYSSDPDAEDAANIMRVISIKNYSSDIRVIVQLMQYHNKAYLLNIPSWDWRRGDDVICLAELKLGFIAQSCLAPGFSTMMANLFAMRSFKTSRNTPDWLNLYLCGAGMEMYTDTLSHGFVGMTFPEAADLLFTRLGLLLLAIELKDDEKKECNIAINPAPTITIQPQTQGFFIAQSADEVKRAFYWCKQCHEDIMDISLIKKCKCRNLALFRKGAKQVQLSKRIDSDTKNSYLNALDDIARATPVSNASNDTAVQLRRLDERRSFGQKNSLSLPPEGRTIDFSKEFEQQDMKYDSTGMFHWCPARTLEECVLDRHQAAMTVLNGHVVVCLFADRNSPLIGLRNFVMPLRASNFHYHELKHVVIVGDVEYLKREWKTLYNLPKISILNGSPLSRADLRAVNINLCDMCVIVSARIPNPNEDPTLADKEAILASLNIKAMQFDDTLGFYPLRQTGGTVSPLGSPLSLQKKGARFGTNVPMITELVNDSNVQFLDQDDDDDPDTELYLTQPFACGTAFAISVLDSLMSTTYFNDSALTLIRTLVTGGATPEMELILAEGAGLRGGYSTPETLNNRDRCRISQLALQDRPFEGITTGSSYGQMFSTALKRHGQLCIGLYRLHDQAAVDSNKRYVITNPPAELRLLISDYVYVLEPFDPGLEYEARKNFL
Test: In Vitro Assay 2: D. immitis Slo-1 recombinant CHO cell line, membrane potential
Conditions: EC50, CHO cells expressing D. immitis Slo-1, voltage sensitive dye, FLIPR Tetra, 70 mM KCl
pEC50: −log10 of the molar value.
A collection of compounds and their measured pEC50

compound	targetUnderTest	pEC50
N#Cc1c(F)cc(C(F)(F)F)cc1-c1cccc2c(N3CCOCC3)c(C(=O)NN3CCOc4ccccc43)cnc12 [Example 5.81]	D. immitis Slo-1 (Dirofilaria immitis, UniProt I0DFK5)	6.00 to 7.00
O=C(NN1CCOc2ccccc21)c1cnc2c(-c3cc(Cl)cc(F)c3F)c(F)ccc2c1N1CC(F)C1 [Example 5.79]	D. immitis Slo-1 (Dirofilaria immitis, UniProt I0DFK5)	6.00 to 7.00
O=C(NN1CCOc2ccccc21)c1cnc2c(-c3cc(F)cc(F)c3F)c(F)ccc2c1C1CC(F)(F)C1 [Example 5.95]	D. immitis Slo-1 (Dirofilaria immitis, UniProt I0DFK5)	> 7.00
N#Cc1c(Cl)cc(C(F)(F)F)cc1-c1cccc2c(N3CCOCC3)c(C(=O)NN3CCOc4ccccc43)cnc12 [Example 5.76]	D. immitis Slo-1 (Dirofilaria immitis, UniProt I0DFK5)	6.00 to 7.00
O=C(NN1CCOc2ccccc21)c1cnc2c(-c3cc(F)cc(F)c3F)c(F)ccc2c1C1CSC1 [Example 5.85]	D. immitis Slo-1 (Dirofilaria immitis, UniProt I0DFK5)	> 7.00
O=C(NN1CCOc2ccccc21)c1cnc2c(-c3cc(F)cc(F)c3F)c(F)ccc2c1N1C[C@@H](F)[C@@H](F)C1 (single isomer, unassigned) [Example 5.89]	D. immitis Slo-1 (Dirofilaria immitis, UniProt I0DFK5)	> 7.00
O=C(NN1CCOc2ccc(F)cc21)c1cnc2c(-c3cc(F)cc(F)c3F)c(F)ccc2c1C1CS(=O)(=O)C1 [Example 5.106]	D. immitis Slo-1 (Dirofilaria immitis, UniProt I0DFK5)	6.00 to 7.00
O=C(NN1CCOc2ccccc21)c1cnc2c(-c3cc(C(F)(F)F)cc(F)c3F)c(F)ccc2c1N1CCOCC1 [Example 5.94]	D. immitis Slo-1 (Dirofilaria immitis, UniProt I0DFK5)	> 7.00
O=C(NN1CCOc2ccccc21)c1cnc2c(-c3cc(F)cc(F)c3F)c(F)c(F)cc2c1N1CCOCC1 [Example 5.105]	D. immitis Slo-1 (Dirofilaria immitis, UniProt I0DFK5)	> 7.00
O=C(NN1CCOc2ccccc21)c1cnc2c(-c3cc(C(F)(F)F)cc(F)c3Br)cccc2c1N1CCOCC1 [Example 5.80]	D. immitis Slo-1 (Dirofilaria immitis, UniProt I0DFK5)	> 7.00
O=C(NN1CCOc2ccc(F)cc21)c1cnc2c(-c3cc(F)cc(F)c3F)c(F)ccc2c1N1CC(F)C1 [Example 5.98]	D. immitis Slo-1 (Dirofilaria immitis, UniProt I0DFK5)	6.00 to 7.00
COC1CN(c2c(C(=O)NN3CCOc4ccccc43)cnc3c(-c4cc(F)cc(F)c4F)c(F)ccc23)C1 [Example 5.84]	D. immitis Slo-1 (Dirofilaria immitis, UniProt I0DFK5)	6.00 to 7.00
C=C(C)c1c(C(=O)NN2CCOc3ccc(F)cc32)cnc2c(-c3cc(F)cc(F)c3F)c(F)ccc12 [Example 5.99]	D. immitis Slo-1 (Dirofilaria immitis, UniProt I0DFK5)	6.00 to 7.00
O=C(NN1CCOc2ccccc21)c1cnc2c(-c3cc(F)cc(F)c3F)c(F)ccc2c1N1CC(F)C1 [Example 5.78]	D. immitis Slo-1 (Dirofilaria immitis, UniProt I0DFK5)	> 7.00
